Measured on: human TLR8 (Homo sapiens (Human), UniProt Q9NR97)
Sequence (Q9NR97 27-1041): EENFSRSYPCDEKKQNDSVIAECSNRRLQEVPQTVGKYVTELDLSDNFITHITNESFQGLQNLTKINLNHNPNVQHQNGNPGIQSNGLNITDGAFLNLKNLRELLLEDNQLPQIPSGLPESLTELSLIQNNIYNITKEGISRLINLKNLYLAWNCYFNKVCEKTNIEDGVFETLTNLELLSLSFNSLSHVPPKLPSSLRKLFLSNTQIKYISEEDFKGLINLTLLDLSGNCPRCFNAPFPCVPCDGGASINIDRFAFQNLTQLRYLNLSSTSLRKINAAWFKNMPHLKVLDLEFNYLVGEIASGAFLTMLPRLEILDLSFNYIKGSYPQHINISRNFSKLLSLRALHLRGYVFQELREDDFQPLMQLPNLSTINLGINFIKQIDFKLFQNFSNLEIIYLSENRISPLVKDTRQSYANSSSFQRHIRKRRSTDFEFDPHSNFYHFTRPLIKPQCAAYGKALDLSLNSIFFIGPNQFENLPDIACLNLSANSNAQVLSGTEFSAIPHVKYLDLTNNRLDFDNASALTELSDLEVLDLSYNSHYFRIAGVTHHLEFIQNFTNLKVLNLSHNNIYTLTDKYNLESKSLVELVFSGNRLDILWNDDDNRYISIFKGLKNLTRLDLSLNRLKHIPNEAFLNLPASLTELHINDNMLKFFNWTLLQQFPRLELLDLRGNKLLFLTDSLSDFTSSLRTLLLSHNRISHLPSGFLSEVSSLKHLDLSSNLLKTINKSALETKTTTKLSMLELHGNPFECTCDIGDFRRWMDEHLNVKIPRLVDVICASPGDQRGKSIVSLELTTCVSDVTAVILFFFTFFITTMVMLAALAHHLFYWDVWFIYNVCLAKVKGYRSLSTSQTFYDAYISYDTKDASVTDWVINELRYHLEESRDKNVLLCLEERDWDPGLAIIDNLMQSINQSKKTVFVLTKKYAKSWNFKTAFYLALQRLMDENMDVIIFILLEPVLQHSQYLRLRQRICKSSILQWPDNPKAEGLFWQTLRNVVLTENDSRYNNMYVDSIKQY
Procedure text: TLR8 inhibition reporter assay (HEK-Blue cells, SEAP reporter, R848 stimulation)
Reported conditions: read-out: TLR8 IC50, HEK-Blue cells overexpressing human TLR8, R848 15.9 μM
For each entry below, report its pIC50 value.
Give bare numbers, as −log10 of the molar value.

CCC(C)CN(CCO)C(=O)CN1CCC(c2ccc3[nH]c(-c4cc(C)nc(C)c4)c(C(C)C)c3c2)CC1 (stereo not shown)    7.36
Cc1cc(-c2[nH]c3ccc(C4CCN(C(=O)CN(C)CCF)CC4)cc3c2C(C)C)cc(C)n1    7.59
Cc1cc(-c2cc3cc(C4CCNCC4)ccc3[nH]2)cc(C)n1    5.50

Switching to the query record.
Request: Could you tell me which pIC50 is on file for Cc1cc(-c2[nH]c3ccc(C4CCN(C(=O)CN5CCOC5=O)CC4)cc3c2C(C)C)cc(C)n1 ?
Response: 7.40

* * *

Measured on: human TLR7 (Homo sapiens (Human))
Procedure text: TLR7 inhibition reporter assay (HEK-Blue cells, SEAP reporter, gardiquimod stimulation)
Assay type: cell-based
Reported conditions: HEK-Blue cells overexpressing human TLR7, gardiquimod 7.5 μM
For each entry below, report its IC50 value.
Numbers only, in µM.

// solved cases for IC50 follow
CCc1c(-c2ccnc(C)c2)[nH]c2ccc(C3CCN(C(=O)C4CC5(CCNCC5)C4)CC3)cc12 [Example 631]    0.0756
CC(C)c1c(-c2ccncc2)[nH]c2ccc(C3CCNCC3)cc12 [Example 38]    0.0384
COc1nccc(-c2[nH]c3ccc(C4CCN(C5CCN(CC(C)C)CC5)CC4)cc3c2C)c1OC [Example 799]    1.67

Request: Could you tell me which IC50 is on file for Cc1cc(-c2[nH]c3ccc(C4CCN(C(=O)C5(C)CCN(C(C)C)CC5)CC4)cc3c2C(C)C)cc(C)n1 [Example 177] ?
Response: 0.0131

* * *

Measured on: human TLR8 (Homo sapiens (Human), UniProt Q9NR97)
Procedure text: TLR8 inhibition reporter assay (HEK-Blue cells, SEAP reporter, R848 stimulation);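 note: compounds tested from 0.05 nM to 50 µM, 22 h at 37 °C, SEAP measured with HEK-Blue Detection, inhibition relative to agonist plus DMSO versus a known inhibitor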
Reported conditions: read-out: TLR8 IC50, HEK-Blue cells overexpressing human TLR8, R848 15.9 μM
Parameter measured: pIC50
One number for each entry, as −log10 of the molar value.

// solved cases for pIC50 follow
CCc1c(-c2ccnc(C)c2)[nH]c2ccc(C3CCN(C)CC3)cc12    7.19
Cc1cc(-c2[nH]c3ccc(C4CCN(C(=O)C5CCOCC5)CC4)cc3c2C(C)C)cc(C)n1    6.98
Cc1cc(-c2[nH]c3ccc(C4CCNCC4)cc3c2C(C)C)c(C#N)c(NCC2CC2)n1    5.43
Cc1cc(-c2[nH]c3ccc(C4CCN(C(=O)CN5CC[C@H](O)C5)CC4)cc3c2C(C)C)cc(C)n1    7.98
Cc1cc(-c2[nH]c3ccc(C4CCN(C(=O)CN5CCCC5)CC4)cc3c2C(C)C)cc(C)n1    7.98

Record pIC50 per entry; entries follow.
1. CCc1c(-c2ccnc(OC)c2)[nH]c2ccc(C3CCN(C4CCN(CC)CC4)CC3)cc12
2. Cc1cc(-c2[nH]c3ccc(C4CCN(Cc5c[nH]nn5)CC4)cc3c2C(C)C)c(C)cn1
3. Cc1cc(-c2[nH]c3ccc(C4CCN(CC(F)F)CC4)cc3c2C(C)C)cc(C)n1
4. Cc1cc(-c2[nH]c3ccc(C4CCN(C(=O)[C@@H]5C[C@H](O)CCN5)CC4)cc3c2C(C)C)ccn1

Response:
1. 7.07
2. 8.72
3. 7.28
4. 8.16

Record pIC50 per entry; entries follow.
1. Cc1cc(-c2[nH]c3ccc(C4CCN(CC(=O)NCCC(C)(C)C)CC4)cc3c2C(C)C)cc(C)n1
2. Cc1cc(-c2[nH]c3ccc(C4CCN(C(=O)CN(C)CC#N)CC4)cc3c2C(C)C)cc(C)n1
3. Cc1cc(-c2[nH]c3ccc(C4CCN(Cc5nn[nH]n5)CC4)cc3c2C(C)C)cc(C)n1

Response:
1: 7.17; 2: 7.68; 3: 6.68

Record pIC50 per entry; entries follow.
1. Cc1cc(-c2[nH]c3ccc(C4CCN(Cc5nnn[nH]5)CC4)cc3c2C(C)C)c(F)cn1
2. Cc1cc(-c2[nH]c3ccc(C4CCN(C(C)C)CC4)cc3c2CC(F)F)cc(C)n1
3. Cc1cc(-c2[nH]c3ccc(C4CCN(CC(O)C(F)(F)F)CC4)cc3c2C(C)C)ccn1 (stereo not shown)

Response:
1. 6.98
2. 7.69
3. 8.51

Request: # query: pIC50 | item Cc1cc(-c2[nH]c3ccc(C4CCN(CC(=O)NCC(C)C)CC4)cc3c2C(C)C)cc(C)n1 | system: human TLR8 (Homo sapiens (Human), UniProt Q9NR97)
Response: 7.76

* * *

Measured on: human TLR7 (Homo sapiens (Human), UniProt Q9NYK1)
Sequence (Q9NYK1 27-1049): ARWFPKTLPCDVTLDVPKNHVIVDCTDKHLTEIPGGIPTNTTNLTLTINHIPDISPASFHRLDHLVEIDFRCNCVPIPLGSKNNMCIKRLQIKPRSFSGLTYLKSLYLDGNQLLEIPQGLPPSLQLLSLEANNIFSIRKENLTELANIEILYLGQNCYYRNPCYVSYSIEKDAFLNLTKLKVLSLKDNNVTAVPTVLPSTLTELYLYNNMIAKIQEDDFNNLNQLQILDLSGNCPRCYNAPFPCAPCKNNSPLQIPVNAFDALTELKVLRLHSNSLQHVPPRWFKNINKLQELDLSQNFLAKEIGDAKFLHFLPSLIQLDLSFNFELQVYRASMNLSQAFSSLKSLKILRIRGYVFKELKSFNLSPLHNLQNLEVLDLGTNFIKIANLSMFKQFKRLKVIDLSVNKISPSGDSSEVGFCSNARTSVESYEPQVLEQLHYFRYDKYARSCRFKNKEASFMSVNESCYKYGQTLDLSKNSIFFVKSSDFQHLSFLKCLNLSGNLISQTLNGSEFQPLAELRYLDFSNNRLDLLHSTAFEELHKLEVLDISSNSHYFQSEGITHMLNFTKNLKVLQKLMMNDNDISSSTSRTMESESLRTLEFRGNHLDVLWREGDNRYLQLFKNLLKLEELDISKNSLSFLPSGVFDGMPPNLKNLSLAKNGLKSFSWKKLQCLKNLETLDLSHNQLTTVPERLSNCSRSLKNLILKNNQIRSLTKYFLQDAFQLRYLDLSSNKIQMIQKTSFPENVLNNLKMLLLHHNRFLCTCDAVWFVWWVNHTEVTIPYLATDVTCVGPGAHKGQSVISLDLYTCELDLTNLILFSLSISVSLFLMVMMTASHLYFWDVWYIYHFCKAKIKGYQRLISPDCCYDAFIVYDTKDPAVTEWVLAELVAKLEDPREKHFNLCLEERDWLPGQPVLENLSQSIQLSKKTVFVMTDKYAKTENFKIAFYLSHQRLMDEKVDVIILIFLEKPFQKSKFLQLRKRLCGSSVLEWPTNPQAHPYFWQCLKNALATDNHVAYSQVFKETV
Procedure text: TLR7 inhibition reporter assay (HEK-Blue cells, SEAP reporter, gardiquimod stimulation)
Format: cell-based
Reported conditions: HEK-Blue cells overexpressing human TLR7, gardiquimod 7.5 μM
For each entry below, report its pIC50 value.
One number for each entry, as −log10 of the molar value.

Cc1cc(-c2[nH]c3ccc(C4CCN(CC(C)O)CC4)cc3c2C(C)C)cc(C)n1 (centres unmarked) [Example 331]    8.62
Cc1cc(-c2[nH]c3ccc(C4CCN(CC(=O)N5CC(O)C5)CC4)cc3c2C(C)C)cc(C)n1 [Example 229]    8.19
Cc1cc(-c2[nH]c3ccc(C4CCNCC4)cc3c2C(C)C)c(N)cn1 [Example 10]    8.29
Cc1cc(-c2[nH]c3ccc(C4CCN(Cc5nnn[nH]5)CC4)cc3c2C(C)C)c(F)cn1 [Example 696]    6.39
Cc1cc(-c2[nH]c3ccc(C4CCN(Cc5c[nH]nn5)CC4)cc3c2C(C)C)c(F)cn1 [Example 691]    8.15

Record pIC50 per entry; entries follow.
1. Cc1cc(-c2[nH]c3ccc(C4CCN(Cc5ncn(C)n5)CC4)cc3c2C(C)C)cc(C)n1 [Example 451]
2. Cc1cc(-c2[nH]c3ccc(C4CCN(C(=O)c5cscn5)CC4)cc3c2C(C)C)cc(C)n1 [Example 201]
3. COc1cc(OC)nc(CN2CCC(c3ccc4[nH]c(-c5cc(C)ncc5F)c(C(C)C)c4c3)CC2)n1 [Example 694]

Response:
8.23
8.30
7.68

* * *

Measured on: human TLR9 (Homo sapiens (Human))
Sequence (Q9NR96 26-1032): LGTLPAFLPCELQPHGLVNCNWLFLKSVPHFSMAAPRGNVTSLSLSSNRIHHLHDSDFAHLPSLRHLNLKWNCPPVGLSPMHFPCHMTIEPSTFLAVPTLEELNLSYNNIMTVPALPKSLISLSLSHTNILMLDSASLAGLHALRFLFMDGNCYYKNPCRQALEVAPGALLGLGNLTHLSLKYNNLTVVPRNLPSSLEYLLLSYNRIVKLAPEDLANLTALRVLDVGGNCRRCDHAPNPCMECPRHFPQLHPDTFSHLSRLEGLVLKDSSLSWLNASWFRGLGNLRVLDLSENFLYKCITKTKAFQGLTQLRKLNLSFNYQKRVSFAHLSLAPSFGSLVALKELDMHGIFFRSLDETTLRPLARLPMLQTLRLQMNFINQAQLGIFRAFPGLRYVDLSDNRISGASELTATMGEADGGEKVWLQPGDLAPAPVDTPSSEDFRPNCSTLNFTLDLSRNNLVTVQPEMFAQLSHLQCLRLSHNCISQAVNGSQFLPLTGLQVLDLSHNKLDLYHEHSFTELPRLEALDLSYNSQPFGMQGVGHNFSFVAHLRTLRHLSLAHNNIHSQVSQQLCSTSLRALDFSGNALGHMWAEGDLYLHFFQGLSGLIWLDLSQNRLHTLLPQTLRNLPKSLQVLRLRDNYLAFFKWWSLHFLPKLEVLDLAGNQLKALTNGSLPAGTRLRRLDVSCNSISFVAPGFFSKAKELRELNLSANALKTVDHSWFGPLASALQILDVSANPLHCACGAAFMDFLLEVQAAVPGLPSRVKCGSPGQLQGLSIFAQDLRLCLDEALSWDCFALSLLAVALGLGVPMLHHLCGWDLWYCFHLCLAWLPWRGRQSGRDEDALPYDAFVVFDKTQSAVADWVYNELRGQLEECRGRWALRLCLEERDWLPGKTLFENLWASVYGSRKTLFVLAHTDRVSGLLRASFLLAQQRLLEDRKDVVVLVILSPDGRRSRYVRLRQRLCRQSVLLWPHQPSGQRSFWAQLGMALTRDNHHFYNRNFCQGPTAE
Procedure text: TLR9 inhibition reporter assay (HEK-Blue cells, SEAP reporter, ODN2006 stimulation);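 note: compounds tested over 0.05 nM to 50 µM, 22 h incubation, inhibition taken as SEAP signal drop from agonist plus DMSO wells toward a known inhibitor control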
Reported conditions: read-out: TLR9 IC50, HEK-Blue cells overexpressing human TLR9, ODN2006 5 nM
Parameter measured: pIC50
Numbers only, as −log10 of the molar value.

Record pIC50 per entry; entries follow.
1. Cc1cc(-c2[nH]c3ccc(C4CCN(C(=O)CN5CCOCC5)CC4)cc3c2C(C)C)cc(C)n1 [Example 350]
2. Cc1cc(-c2[nH]c3ccc(C4CCN(C(=O)C5(N(C)C)CC5)CC4)cc3c2C(C)C)cc(C)n1 [Example 172]
3. CC(C)c1c(-c2cc(Cl)ncc2C#N)[nH]c2ccc(C3CCNCC3)cc12 [Example 26]
4. Cc1cc(-c2[nH]c3ccc(C4CCNCC4)cc3c2C(C)C)cc(C)[n+]1[O-] [Example 56]
5. CCc1c(-c2ccnc(N)c2O)[nH]c2ccc(C3CCNCC3)cc12 [Example 71]

Response:
1: 5.41; 2: 5.29; 3: 5.20; 4: 6.09; 5: 5.55

Record pIC50 per entry; entries follow.
1. Cc1cc(-c2[nH]c3ccc(C4CCN(CC(=O)N(CCO)Cc5ccccc5)CC4)cc3c2C(C)C)cc(C)n1 [Example 293]
2. CCc1cc(-c2[nH]c3ccc(C4CCNCC4)cc3c2C(C)C)cc(C)n1 [Example 479]
3. Cc1cc(-c2[nH]c3ccc(C4CCN(S(=O)(=O)c5cccnc5)CC4)cc3c2C(C)C)ccn1 [Example 543]
4. Cc1cc(-c2[nH]c3ccc(C4CCN(C(=O)CN(C(C)C)C(C)C)CC4)cc3c2C(C)C)cc(C)n1 [Example 153]
5. Cc1cc(-c2[nH]c3ccc(C4CCN(CC(=O)NC5CCC5)CC4)cc3c2C(C)C)cc(C)n1 [Example 213]

Response:
1. 6.15
2. 5.47
3. 5.01
4. 6.17
5. 6.48

Record pIC50 per entry; entries follow.
1. Cc1cc(-c2[nH]c3ccc(C4CCNCC4)cc3c2C(C)C)c(C)cn1 [Example 31]
2. Cc1cc(-c2[nH]c3ccc(C4CCN(C5CCOCC5)CC4)cc3c2C(C)C)ccn1 [Example 710]

Response:
[6.02, 6.26]

Record pIC50 per entry; entries follow.
1. CCc1c(-c2cc(Cl)ncc2F)[nH]c2ccc(C3CCN(C4CCN(CC(C)C)CC4)CC3)cc12 [Example 760]
2. Cc1cc(-c2[nH]c3ccc(C4CCN(CC(F)(F)F)CC4)cc3c2C(C)C)ccn1 [Example 658]
3. Cc1cc(-c2[nH]c3ccc(C4CCN(C(=O)CN5CCOC[C@@H]5CO)CC4)cc3c2C(C)C)cc(C)n1 [Example 405]

Response:
5.62
5.14
6.28

The reported measurements were obtained from patent US10660877B2.
